Entries and their Biodistribution: Fat values follow.
- System: NRG-mice bearing LNCaP tumors
- experiment-notes: Biodistribution (and PET/SPECT imaging) in NRG-mice bearing LNCaP tumors
- Format: in vivo
- experimental-context: 3 h p.i., Avg
*1 amine or outer side, *2 acyl side, *3 side chain or, on linkers, in order; H or OH if unused. Where a SMILES comes first, the peptide text is derived from it. [ ]: non-standard residue; d: D form. The star is where a group is joined. ξ: configuration not given here. ξLys(Nα-CO-ξAad) = O=C(O)CCCC(NC(=O)NC(CCCCN*)C(=O)O)C(=O)O; Butanoyl(4-(4-NO2Ph)) = O=C(CCCc1ccc([N+](=O)[O-])cc1)*; DOTA = O=C(O)CN1CCN(CC(=O)O)CCN(CC(=O)*)CCN(CC(=O)O)CC1; Butanoyl(4-(4-MeO-phenyl)) = COc1ccc(CCCC(=O)*)cc1; ξAla(9-anthryl) = NC(Cc1c2ccccc2cc2ccccc12)C(=O)O; X1 = O=C(C1CCC(CN[*:1])CC1)[*:2]; ξK = NCCCCC(N)C(=O)O
Lab book: enter the figure in % ID/g, no units written.

Solved cases below.
• COc1ccc(CCCC(=O)NCC(=O)NC(CCCCNC(=O)CN2CCN(CC(=O)[O-])CCN(CC(=O)[O-])CCN(CC(=O)[O-])CC2)C(=O)NCC(=O)NCC2CCC(C(=O)NC(Cc3c4ccccc4cc4ccccc34)C(=O)NCCCCC(NC(=O)NC(CCCC(=O)O)C(=O)O)C(=O)O)CC2)cc1.[68Ga+3] (stereo not drawn) [^68Ga-CCZ02009] ({Butanoyl(4-(4-MeO-phenyl))}-G[ξK](DOTA)G[X1][ξAla(9-anthryl)]-{ξLys(Nα-CO-ξAad)}) = 1.52
• O=C([O-])CN1CCN(CC(=O)[O-])CCN(CC(=O)NCCCCC(NC(=O)CNC(=O)CCCc2ccc([N+](=O)[O-])cc2)C(=O)NCC(=O)NCC2CCC(C(=O)NC(Cc3c4ccccc4cc4ccccc34)C(=O)NCCCCC(NC(=O)NC(CCCC(=O)O)C(=O)O)C(=O)O)CC2)CCN(CC(=O)[O-])CC1.[177Lu+3] (stereo not drawn) [^177Lu-CCZ02017] ({Butanoyl(4-(4-NO2Ph))}-G[ξK](DOTA)G[X1][ξAla(9-anthryl)]-{ξLys(Nα-CO-ξAad)}) = 1.85

Exercise: GET /values?readout=Biodistribution: Fat&system=NRG-mice bearing LNCaP tumors&item= O=C([O-])CN1CCN(CC(=O)[O-])CCN(CC(=O)NCCCCC(NC(=O)CNC(=O)CCCc2ccc([N+](=O)[O-])cc2)C(=O)NCC(=O)NCC2CCC(C(=O)NC(Cc3c4ccccc4cc4ccccc34)C(=O)NCCCCC(NC(=O)NC(CCCC(=O)O)C(=O)O)C(=O)O)CC2)CCN(CC(=O)[O-])CC1.[225Ac+3] (stereo not drawn) [^225Ac-CCZ02017] ({Butanoyl(4-(4-NO2Ph))}-G[ξK](DOTA)G[X1][ξAla(9-anthryl)]-{ξLys(Nα-CO-ξAad)})
Solution: 1.96
